test: physchem; details: organic solvent or mixture, thermodynamic from solid, Approximate solubility, IPAC, RT
measuredQuantity: solubility

- C[C@@H]1CN(Cc2cccc(OC(F)(F)F)c2)CCN1C(=O)Oc1cncc(C(N)=O)c1 [Form A]: > 21 mg/mL

###

assay: Solubility of Form A in physiologically relevant media (37° C.); format: physicochemical; conditions: simulated gastric fluid, thermodynamic from solid, pH 2 (0.01N HCl), final measured pH 3.55
measuredQuantity: solubility (µg/mL)

* C[C@@H]1CN(Cc2cccc(OC(F)(F)F)c2)CCN1C(=O)Oc1cncc(C(N)=O)c1 [Form A] | 3860

###

assay: Visual solubility assessment of Form B at room temperature; format: physicochemical; conditions: organic solvent or mixture, thermodynamic from solid; Acetone, room temperature
measuredQuantity: solubility at 3 min

* C[C@@H]1CN(Cc2cccc(OC(F)(F)F)c2)CCN1C(=O)Oc1cncc(C(N)=O)c1 [Form B] | > 430 mg/mL
